# Test system: IFNα Kit225 Reporter (Kit225 T cells with a stably-integrated STAT-dependent luciferase reporter, stimulated with IFNα)
# RUN DESCRIPTION: Kit225 T Cell Assay, IFNα-stimulated STAT-dependent luciferase reporter
# Format: cell-based
# CONDITION DETAILS: 200 U/mL human recombinant IFNα, 5-6 hours, luciferase expression
METRIC: pIC50
Give bare numbers, as −log10 of the molar value.

Some compounds with known pIC50 results, for comparison:
CC(C)(C)Oc1nc(Nc2cc(NC3CCOCC3)nn3c(C#N)cnc23)ccc1C(=O)N1CCCC1; 6.22
CN(C)C1CCN(C(=O)c2ccc(Nc3cc(NC4CCOCC4)nn4c(C#N)cnc34)nc2OCC(F)F)C1 (stereo not drawn); 6.47

Measured pIC50, "N#Cc1cnc2c(Nc3cccc(-n4cccn4)n3)cc(N[C@@H]3CCCC[C@H]3O)nn12" : 6.35
